Measured target: S1PR2 (Homo sapiens)
Construct: purchased
Sequence (O95136 whole entry): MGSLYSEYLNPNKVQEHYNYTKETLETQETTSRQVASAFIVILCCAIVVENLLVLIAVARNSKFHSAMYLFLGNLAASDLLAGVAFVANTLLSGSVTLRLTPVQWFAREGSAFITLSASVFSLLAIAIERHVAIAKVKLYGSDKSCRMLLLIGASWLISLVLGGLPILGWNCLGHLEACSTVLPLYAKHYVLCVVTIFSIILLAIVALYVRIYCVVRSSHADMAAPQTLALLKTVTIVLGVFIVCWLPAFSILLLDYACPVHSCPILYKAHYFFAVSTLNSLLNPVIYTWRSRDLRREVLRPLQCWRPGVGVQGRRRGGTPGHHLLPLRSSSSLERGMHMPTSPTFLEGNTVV
Experiment notes: competitive [^32P]S1P binding assay on cell membranes, S1PR2
Condition description: read-out: [^32P]S1P competition assay IC50; S1PR2, radioligand [^32P]S1P
Measured endpoint: pIC50
Kindly note that pIC50 refers to -log10 of the concentration in mol/L and answer with the value alone.

Memo: "COc1ccc(NC(=O)Cn2c(=O)c3ccccc3n(CC(=O)Nc3cc(I)c(OC)cc3OC)c2=O)cc1" , reported pIC50: 8.55

----------
Measured target: S1PR2 (Homo sapiens)
Construct: purchased
Experiment notes: competitive [^32P]S1P binding assay on cell membranes, S1PR2
Condition description: Table 5; read-out: IC50 S1PR2
Measured endpoint: IC50

Solved cases (3 shown):
IC50 recorded for this molecule, "CNC(=O)c1ccc(Oc2cc(NC(=O)N3CCC(C)(O)CC3)cc(C(F)(F)F)c2)cc1" , is > 1000 nM

Record summary for "CCC(CC)CC1(O)CCN(C(=O)Nc2cc(Oc3ccc(S(C)(=O)=O)cc3)cc(Sc3ccc(F)cc3)c2)CC1" : reported IC50 = 143 nM

Note to self: IC50 recorded for "CCOc1ccc(C(=O)Cn2c(=O)n(C)c(=O)c3ccccc32)cc1Cl" was > 1000 nM

More entries:
# IC50 of "COc1ccccc1NC(=O)Cn1c(=O)[nH]c2ccccc2c1=O" = > 1000 nM
